Tested on: P. aeruginosa
Test: P. aeruginosa thigh infection mouse model, IV dosing
Type: in vivo, Pseudomonas aeruginosa
Conditions: CFU change at 12 h vs no treatment control, PMB values in parenthesis side-by-side
Positions of bridges follow the written chain, without caps; N, C: chain ends. Non-standard residues stand in square brackets, D forms with d. Residues, ends and D or L forms follow the SMILES beside them. ξ: configuration not given here. *: point of attachment. Thr(3ξ) = CC(O)[C@H](N)C(=O)O; Dab = NCC[C@H](N)C(=O)O; X4 = CCCCOC(=O)CCC(=O)*
assay metric: P. aeruginosa Thigh model, IV dosing ΔlogCFU at 5 mg/kg

## Input For CCCCOC(=O)CCC(=O)N[C@@H](CCN)C(=O)N[C@H](C(=O)N[C@@H](CCN)C(=O)N[C@H]1CCNC(=O)[C@H](C(C)O)NC(=O)[C@H](CCN)NC(=O)[C@H](CCN)NC(=O)[C@H](CC(C)C)NC(=O)[C@@H](Cc2ccccc2)NC(=O)[C@H](CCN)NC1=O)C(C)O (stereo partly shown) [Example 7] (X4-[Dab][Thr(3ξ)][Dab][Dab][Dab][dF]L[Dab][Dab][Thr(3ξ)]; lactam 4-C) , what is its reported P. aeruginosa Thigh model, IV dosing ΔlogCFU at 5 mg/kg?
## Output −0.50

----------
Assay: Stability in human plasma at 37° C.
Assay type: in vitro ADME
Conditions: human, plasma
Positions of bridges follow the written chain, without caps; N, C: chain ends. Non-standard residues stand in square brackets, D forms with d. Residues, ends and D or L forms follow the SMILES beside them. ξ: configuration not given here. *: point of attachment. Thr(3ξ) = CC(O)[C@H](N)C(=O)O; X1 = CCC(C)(C)C(=O)OCCC(=O)*; X2 = CCCC(C)OC(=O)CCC(=O)*; Dab = NCC[C@H](N)C(=O)O; X4 = CCCCOC(=O)CCC(=O)*
assay metric: remaining at 1 h, 25 μM (%)
# output: bare number, implied unit %

## Input For CCCCOC(=O)CCC(=O)N[C@@H](CCN)C(=O)N[C@H](C(=O)N[C@@H](CCN)C(=O)N[C@H]1CCNC(=O)[C@H](C(C)O)NC(=O)[C@H](CCN)NC(=O)[C@H](CCN)NC(=O)[C@H](CC(C)C)NC(=O)[C@@H](Cc2ccccc2)NC(=O)[C@H](CCN)NC1=O)C(C)O (stereo partly drawn) [Example 7] (X4-[Dab][Thr(3ξ)][Dab][Dab][Dab][dF]L[Dab][Dab][Thr(3ξ)]; lactam 4-C) , what is its reported remaining at 1 h, 25 μM?
## Output 49

## Input For CCCC(C)OC(=O)CCC(=O)N[C@@H](CCN)C(=O)N[C@H](C(=O)N[C@@H](CCN)C(=O)N[C@H]1CCNC(=O)[C@H](C(C)O)NC(=O)[C@H](CCN)NC(=O)[C@H](CCN)NC(=O)[C@H](CC(C)C)NC(=O)[C@@H](Cc2ccccc2)NC(=O)[C@H](CCN)NC1=O)C(C)O (stereo partly drawn) [Example 18] (X2-[Dab][Thr(3ξ)][Dab][Dab][Dab][dF]L[Dab][Dab][Thr(3ξ)]; lactam 4-C) , what is its reported remaining at 1 h, 25 μM?
## Output 66

## Input For CCC(C)(C)C(=O)OCCC(=O)N[C@@H](CCN)C(=O)N[C@H](C(=O)N[C@@H](CCN)C(=O)N[C@H]1CCNC(=O)[C@H](C(C)O)NC(=O)[C@H](CCN)NC(=O)[C@H](CCN)NC(=O)[C@H](CC(C)C)NC(=O)[C@@H](Cc2ccccc2)NC(=O)[C@H](CCN)NC1=O)C(C)O (stereo partly drawn) [Example 12] (X1-[Dab][Thr(3ξ)][Dab][Dab][Dab][dF]L[Dab][Dab][Thr(3ξ)]; lactam 4-C) , what is its reported remaining at 1 h, 25 μM?
## Output 67

----------
Assay: Stability in human plasma at 37° C.
Assay type: in vitro ADME
Settings: human, plasma
Description: Exemplary compounds of this invention were tested for stability in human plasma at 37° C., replicating in vivo conditions of mammalian blood. Plasma stability for select compounds was performed as follows. […] The extent of metabolism was calculated as the disappearance of the test compound over time. […] The formation of a potential metabolite was monitored in all samples. The samples were analyzed on LC/MS/MS using an AB Sciex API 4000 instrument, coupled to a Shimadzu LC-20AD LC Pump system. […]
Positions of bridges follow the written chain, without caps; N, C: chain ends. Non-standard residues stand in square brackets, D forms with d. Residues, ends and D or L forms follow the SMILES beside them. ξ: configuration not given here. *: point of attachment. X3 = CCCCCCCC(=O)O[C@@H](CCN)C(=O)*; Thr(3ξ) = CC(O)[C@H](N)C(=O)O; X1 = CCC(C)(C)C(=O)OCCC(=O)*; X2 = CCCC(C)OC(=O)CCC(=O)*; Dab = NCC[C@H](N)C(=O)O; X4 = CCCCOC(=O)CCC(=O)*
assay metric: remaining at 4 h, 25 μM (%)
# output: bare number, implied unit %

## Input For CCCC(C)OC(=O)CCC(=O)N[C@@H](CCN)C(=O)N[C@H](C(=O)N[C@@H](CCN)C(=O)N[C@H]1CCNC(=O)[C@H](C(C)O)NC(=O)[C@H](CCN)NC(=O)[C@H](CCN)NC(=O)[C@H](CC(C)C)NC(=O)[C@@H](Cc2ccccc2)NC(=O)[C@H](CCN)NC1=O)C(C)O (stereo partly shown) [Example 18] (X2-[Dab][Thr(3ξ)][Dab][Dab][Dab][dF]L[Dab][Dab][Thr(3ξ)]; lactam 4-C) , what is its reported remaining at 4 h, 25 μM?
## Output 18

## Input For CCCCOC(=O)CCC(=O)N[C@@H](CCN)C(=O)N[C@H](C(=O)N[C@@H](CCN)C(=O)N[C@H]1CCNC(=O)[C@H](C(C)O)NC(=O)[C@H](CCN)NC(=O)[C@H](CCN)NC(=O)[C@H](CC(C)C)NC(=O)[C@@H](Cc2ccccc2)NC(=O)[C@H](CCN)NC1=O)C(C)O (stereo partly shown) [Example 7] (X4-[Dab][Thr(3ξ)][Dab][Dab][Dab][dF]L[Dab][Dab][Thr(3ξ)]; lactam 4-C) , what is its reported remaining at 4 h, 25 μM?
## Output 15

## Input For CCC(C)(C)C(=O)OCCC(=O)N[C@@H](CCN)C(=O)N[C@H](C(=O)N[C@@H](CCN)C(=O)N[C@H]1CCNC(=O)[C@H](C(C)O)NC(=O)[C@H](CCN)NC(=O)[C@H](CCN)NC(=O)[C@H](CC(C)C)NC(=O)[C@@H](Cc2ccccc2)NC(=O)[C@H](CCN)NC1=O)C(C)O (stereo partly shown) [Example 12] (X1-[Dab][Thr(3ξ)][Dab][Dab][Dab][dF]L[Dab][Dab][Thr(3ξ)]; lactam 4-C) , what is its reported remaining at 4 h, 25 μM?
## Output 31

## Input For CCCCCCCC(=O)O[C@@H](CCN)C(=O)N[C@H](C(=O)N[C@@H](CCN)C(=O)N[C@H]1CCNC(=O)[C@H](C(C)O)NC(=O)[C@H](CCN)NC(=O)[C@H](CCN)NC(=O)[C@H](CC(C)C)NC(=O)[C@@H](Cc2ccccc2)NC(=O)[C@H](CCN)NC1=O)C(C)O (stereo partly shown) [Reference Example 1, reference compound] (X3-[Thr(3ξ)][Dab][Dab][Dab][dF]L[Dab][Dab][Thr(3ξ)]; lactam 3-C) , what is its reported remaining at 4 h, 25 μM?
## Output 100
